- Test system: NASH mice
- Method notes: Whole blood glucose and plasma ALT in NASH mice
- Assay type: in vivo, C57BL/6 mice
- Conditions: time of sacrifice, n = 6
Listed next: entries and their corresponding Plasma ALT (mean ± SD).
# number only, unit U/L dropped from output

Here's what some known entries look like.
INSERT INTO results (compound, target_or_test_system, observed_measurement) VALUES
  ('Clc1ccc(Cn2c(CN3CCCC3)nc3ccccc32)cc1 [Compound D, clemizole]', 'NASH mice', 18),
  ('CCN(CC)CCC[C@@H](C)Nc1ccnc2cc(Cl)ccc12 [Compound B, R-chloroquine]', 'NASH mice', 14);

[Q] State its Plasma ALT (mean ± SD) for this compound: CCN(CC)CCC[C@H](C)Nc1ccnc2cc(Cl)ccc12 [Compound C, S-chloroquine]
[A] 9

[Q] Return value of Plasma ALT (mean ± SD) for input CCN(CC)CCCC(C)Nc1ccnc2cc(Cl)ccc12 (stereo not shown) [Compound A] , no commentary.
[A] 21

###

- System: NASH mice
- Method notes: Liver fibrosis area, Sirius red staining in NASH mice
- Assay type: in vivo, C57BL/6 mice
- Conditions: liver fibrosis area, n = 6
Reported metric: Sirius red-positive area (mean ± SD) (%)
# unit: % | format: bare number

Some compounds with recorded Sirius red-positive area (mean ± SD):
INSERT INTO measurements (compound, reported_metric, unit_label, observed_measurement) VALUES
  ('CCN(CC)CCC[C@H](C)Nc1ccnc2cc(Cl)ccc12', 'Sirius red-positive area (mean ± SD)', '%', 0.90),
  ('CCN(CC)CCCC(C)Nc1ccnc2cc(Cl)ccc12 (stereo not shown)', 'Sirius red-positive area (mean ± SD)', '%', 0.87),
  ('CCN(CC)CCC[C@@H](C)Nc1ccnc2cc(Cl)ccc12', 'Sirius red-positive area (mean ± SD)', '%', 0.78);

From here, focus on the item given below.
[Q] GET Sirius red-positive area (mean ± SD) where system = NASH mice and item = Clc1ccc(Cn2c(CN3CCCC3)nc3ccccc32)cc1
[A] 0.95

###

- System: NASH mice
- Method notes: NAFLD activity score, HE staining of liver sections of NASH mice
- Type: in vivo, C57BL/6 mice
- Conditions: n = 6, score 1 = 5-33%
Let's look at some compounds and their measured Steatosis score 1, number of mice.
Reply briefly: the number, and no unit.

Sample records with Steatosis score 1, number of mice:
INSERT INTO assay_data (compound, observed_measurement) VALUES
  ('Clc1ccc(Cn2c(CN3CCCC3)nc3ccccc32)cc1 [Compound D, clemizole]', 5),
  ('CCN(CC)CCC[C@H](C)Nc1ccnc2cc(Cl)ccc12 [Compound C, S-chloroquine]', 6),
  ('CCN(CC)CCCC(C)Nc1ccnc2cc(Cl)ccc12 (stereo not shown) [Compound A]', 5);

[Q] Dear colleague, please send me the reported Steatosis score 1, number of mice for CCN(CC)CCC[C@@H](C)Nc1ccnc2cc(Cl)ccc12 [Compound B, R-chloroquine] when you can.
[A] 5
